Reference source for all entries: patent US6355799B1

- Test system: field corn (Zea mays L., var. Dekalb 535, CORN)
- assay.comment: Pre-emerge test, crop safety
- Type: in vivo
- assay.context: crop damage, pre-emerge, rate 250 g ai/ha, phytotoxicity rating 0-100 at 14 days after application
- Method: A standard greenhouse herbicide activity screening system was used to evaluate the herbicidal efficacy and crop safety of these test compounds. […] At 14 days after application of the test materials, phytotoxicity ratings were recorded. […]
Listed below: Pre-emerge Herbicidal Activity CORN values for each entry.
parameter.measured: Pre-emerge Herbicidal Activity CORN

COc1c(Cl)cc(F)c(-n2nnn(CCCF)c2=O)c1NC(=O)COCc1ccccc1    20
COc1c(Cl)cc(F)c(-n2ncc(C(F)(F)F)cc2=O)c1NC(=O)c1ccc2ccccc2c1    20
COc1c(Cl)cc(F)c(-n2c(=O)n3n(c2=O)CCCC3)c1NC(C)=O    10
Cc1cc(C)c(COC(=O)Nc2c(C)c(Cl)cc(F)c2-n2c(=O)cc(C(F)(F)F)n(C)c2=O)c(C)c1    0
COc1c(Cl)cc(F)c(-n2nnn(CCCF)c2=O)c1NC(=O)c1ccc2ccccc2c1    0
COc1c(Cl)cc(F)c(-n2nnn(CCCF)c2=O)c1N    0
COc1ccccc1COC(=O)Nc1c(C)c(Cl)cc(F)c1-n1c(=O)cc(C(F)(F)F)n(C)c1=O    25
CCC(=O)Nc1c(Cl)cc(Cl)c(-n2nc(C)n(C(F)F)c2=O)c1N    0
C=Cc1ccc(C(=O)Nc2c(OC)c(Cl)cc(F)c2N2C(=O)C3=C(CCCC3)C2=O)cc1    5
COc1c(Cl)cc(F)c(-n2c(=O)n3n(c2=O)CCCC3)c1NC(=O)c1ccc(F)cc1F    90
O=C(Nc1cc(Cl)ccc1N1C(=O)C2=C(CCCC2)C1=O)c1ccc2ccccc2c1    0
O=C(Nc1cc(Cl)ccc1-n1c(=O)n2n(c1=S)CCCC2)c1ccc2ccccc2c1    0
C#CCOc1c(Cl)cc(Cl)c(-n2nnn(CCCF)c2=O)c1N    0
Cc1cccc(C)c1OC(=O)Nc1c(C)c(Cl)cc(F)c1-n1c(=O)cc(C(F)(F)F)n(C)c1=O    30
Cc1c(Cl)cc(F)c(-n2c(=O)cc(C(F)(F)F)n(C)c2=O)c1NC(=O)OCc1ccc(Cl)cc1    0
C#CCOc1c(Cl)cc(F)c(-n2nnn(CCCF)c2=O)c1N    0
CC(C)Oc1c(Cl)cc(F)c(N2C(=O)C3=C(CCCC3)C2=O)c1NC(=O)c1ccc(F)cc1F    10
Cc1ccccc1COC(=O)Nc1c(C)c(Cl)cc(F)c1-n1c(=O)cc(C(F)(F)F)n(C)c1=O    80
COc1c(Cl)cc(F)c(N2C(=O)C3=C(CCCC3)C2=O)c1N    10
COc1cccc(OC)c1OC(=O)Nc1c(C)c(Cl)cc(F)c1-n1c(=O)cc(C(F)(F)F)n(C)c1=O    80

* * *

Listed below: Pre-emerge Herbicidal Activity, phytotoxicity rating (0-100), SORHA values for each entry.
- Test system: johnsongrass (Sorghum halepense, SORHA)
- assay.comment: Pre-emerge test, greenhouse herbicide activity screening
- Assay type: in vivo
- assay.context: 63 g ai/ha; rated 14 days after application; 0 = no damage, 100 = complete death
parameter.measured: Pre-emerge Herbicidal Activity, phytotoxicity rating (0-100), SORHA

COc1c(Cl)cc(F)c(-n2c(=O)cc(C(F)(F)F)n(C)c2=O)c1NC(=O)c1ccccc1Cl [2-53]    40
Cn1c(C(F)(F)F)cc(=O)n(-c2c(F)cc(Cl)c(OCC#N)c2NC(=O)CCc2ccccc2)c1=O [2-87]    50
COc1c(Cl)cc(F)c(-n2c(=O)cc(C(F)(F)F)n(C)c2=O)c1NC(=O)c1cccnc1 [2-98]    30
Cn1c(C(F)(F)F)cc(=O)n(-c2c(F)cc(Cl)c(O)c2NC(=O)c2ncccn2)c1=O [2-102]    0
COc1c(Cl)cc(F)c(-n2c(=O)cc(C(F)(F)F)n(C)c2=O)c1NC(=O)c1ccc(Cl)cc1Cl [2-58]    70
COc1c(Cl)cc(F)c(-n2c(=O)cc(C(F)(F)F)n(C)c2=O)c1NC(=O)c1ccc2ccccc2c1 [2-75]    20
COc1c(Cl)cc(F)c(-n2c(=O)cc(C(F)(F)F)n(C)c2=O)c1NC(=O)C=Cc1ccccc1Cl [2-82]    0
COc1c(Cl)cc(F)c(-n2c(=O)cc(C(F)(F)F)n(C)c2=O)c1NC(=O)c1ccccc1F [2-39]    60
COc1c(Cl)cc(F)c(-n2c(=S)cc(C(F)(F)F)n(C)c2=O)c1NC(=S)c1ccc(F)cc1F [2-46]    30
CCOc1ccc(C(=O)Nc2c(OC)c(Cl)cc(F)c2-n2c(=O)cc(C(F)(F)F)n(C)c2=O)cc1 [2-64]    10
